# experimental.system: human β2AR (Homo sapiens)
# Construct: crude membrane fraction
# Sequence (P07550 whole entry): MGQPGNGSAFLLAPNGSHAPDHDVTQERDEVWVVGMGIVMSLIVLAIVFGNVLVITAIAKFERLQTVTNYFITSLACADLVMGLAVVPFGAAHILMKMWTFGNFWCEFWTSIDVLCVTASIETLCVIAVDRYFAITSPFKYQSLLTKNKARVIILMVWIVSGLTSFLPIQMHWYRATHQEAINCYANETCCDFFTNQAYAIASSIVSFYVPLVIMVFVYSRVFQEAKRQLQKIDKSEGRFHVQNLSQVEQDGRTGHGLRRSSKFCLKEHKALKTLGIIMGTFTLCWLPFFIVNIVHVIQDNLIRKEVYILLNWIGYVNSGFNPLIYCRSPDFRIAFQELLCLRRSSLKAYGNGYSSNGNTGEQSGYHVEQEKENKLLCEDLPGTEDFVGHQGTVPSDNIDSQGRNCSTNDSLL
# experimental.protocol: Saturation binding of [^3H]-dihydroalprenolol to T. ni membranes expressing β2AR
# condition.label: 4 days after oral infection
metric: Kd (nM)

>  <compound>
CCCc1ccccc1OCC(O)CNC(C)C (stereo not shown) [[^3H]-dihydroalprenolol]

>  <test.value>
1.6

$$$$
